# Target under test: cyclin G associated kinase (GAK), kinase domain (Homo sapiens, UniProt O14976)
# Sequence (O14976 12-347 limits assumed): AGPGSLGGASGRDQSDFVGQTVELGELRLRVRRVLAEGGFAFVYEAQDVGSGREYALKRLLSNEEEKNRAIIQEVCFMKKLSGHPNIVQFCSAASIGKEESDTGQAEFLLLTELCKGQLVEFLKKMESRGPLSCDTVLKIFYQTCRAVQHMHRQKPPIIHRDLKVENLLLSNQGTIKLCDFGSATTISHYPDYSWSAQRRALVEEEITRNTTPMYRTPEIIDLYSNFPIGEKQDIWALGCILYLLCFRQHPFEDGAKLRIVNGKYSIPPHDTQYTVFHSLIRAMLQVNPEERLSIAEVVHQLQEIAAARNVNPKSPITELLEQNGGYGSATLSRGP
# Assay: biochemical
Property measured: Ki (µM)

Below, each entry is followed by its recorded Ki result.
Brc1ccc2nccc(Nc3ccc4c(c3)OCO4)c2c1    0.035
COc1cccc(Nc2ncnc3ccc(Br)cc23)c1    0.011
O=[N+]([O-])c1cccc(Nc2ccnc3ccc(Br)cc23)c1    0.056
Oc1cccc(Nc2ccnc3ccc(Br)cc23)c1    0.0012

1 = CC(C)(C)c1cccc(Nc2ccnc3ccc(Br)cc23)c1
2 = FS(F)(F)(F)(F)c1cccc(Nc2ccnc3ccc(Br)cc23)c1
For the pair 1 and 2 , which member has the lower Ki number? The response must carry the label of the picked entry.
1
(1: 2.6 µM, 2: 4.9 µM)

P = CC(C)(C)Oc1cccc(Nc2ccnc3ccc(Br)cc23)c1
Q = COc1cccc(Nc2ccnc3ccc(Br)cc23)c1
Ki comparison. Which is larger, P or Q ? The response must carry the label of the picked entry.
P
(P: 2.2 µM, Q: 0.0029 µM)

* * *

# Target under test: cyclin G associated kinase (GAK), kinase domain (Homo sapiens, UniProt O14976)
# Sequence (O14976 12-347 limits assumed): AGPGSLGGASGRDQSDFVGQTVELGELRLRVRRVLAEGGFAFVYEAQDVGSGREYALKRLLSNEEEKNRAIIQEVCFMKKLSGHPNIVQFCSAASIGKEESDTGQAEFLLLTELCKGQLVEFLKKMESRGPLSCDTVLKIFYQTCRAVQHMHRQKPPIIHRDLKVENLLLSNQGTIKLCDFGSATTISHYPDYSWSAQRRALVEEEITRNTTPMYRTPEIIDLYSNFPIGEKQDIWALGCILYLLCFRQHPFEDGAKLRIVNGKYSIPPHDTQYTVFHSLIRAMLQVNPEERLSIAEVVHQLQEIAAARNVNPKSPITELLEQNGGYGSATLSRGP
# Assay: TR-FRET ligand binding displacement assay, 16-point dose response
Property measured: Ki (nM)
Answer with a number only, understood to be in nM.

Given item "CN(C)c1cccc(Nc2ccnc3ccc(C(F)(F)F)cc23)c1" , the value recorded as its Ki is 650

* * *

# Target under test: BMP2K (Homo sapiens)
# Assay: biochemical
pKi: −log10 of the molar value.
Property measured: pKi

COc1cccc(Nc2ncnc3ccc(Br)cc23)c1 [compound 29]    5.89

I = COc1cccc(Nc2ccnc3ccc(Br)cc23)c1 [compound 13]
II = Brc1ccc2nccc(Nc3ccc4c(c3)OCO4)c2c1 [compound 25]
For the pair I and II , which member has the lower pKi number? The response must carry the label of the picked entry.
II

* * *

# Target under test: STK16 (Homo sapiens, UniProt O75716)
# Sequence (O75716 whole entry): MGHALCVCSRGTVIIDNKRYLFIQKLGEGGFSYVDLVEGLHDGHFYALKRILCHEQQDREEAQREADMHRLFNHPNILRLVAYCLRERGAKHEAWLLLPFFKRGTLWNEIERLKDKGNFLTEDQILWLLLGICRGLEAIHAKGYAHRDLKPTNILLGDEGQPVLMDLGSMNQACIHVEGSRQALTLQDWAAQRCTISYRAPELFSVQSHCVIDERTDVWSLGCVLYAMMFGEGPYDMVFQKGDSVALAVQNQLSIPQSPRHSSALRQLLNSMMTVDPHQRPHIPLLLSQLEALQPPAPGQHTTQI
# Assay: biochemical
Property measured: Ki (µM)

COc1cccc(Nc2ncnc3ccc(Br)cc23)c1 [compound 29]    5.5
CC(C)(C)Oc1cccc(Nc2ccnc3ccc(Br)cc23)c1 [compound 33]    12

a = Brc1ccc2nccc(Nc3ccc4c(c3)OCO4)c2c1 [compound 25]
b = Oc1cccc(Nc2ccnc3ccc(Br)cc23)c1 [compound 14, 3-((6-bromoquinolin-4-yl)amino)phenol]
For the pair a and b , which member has the lower Ki number? The response must carry the label of the picked entry.
b
(b: 5.7 µM, a: 10 µM)

* * *

# Target under test: AAK1 (Homo sapiens)
# Sequence (Q2M2I8 whole entry): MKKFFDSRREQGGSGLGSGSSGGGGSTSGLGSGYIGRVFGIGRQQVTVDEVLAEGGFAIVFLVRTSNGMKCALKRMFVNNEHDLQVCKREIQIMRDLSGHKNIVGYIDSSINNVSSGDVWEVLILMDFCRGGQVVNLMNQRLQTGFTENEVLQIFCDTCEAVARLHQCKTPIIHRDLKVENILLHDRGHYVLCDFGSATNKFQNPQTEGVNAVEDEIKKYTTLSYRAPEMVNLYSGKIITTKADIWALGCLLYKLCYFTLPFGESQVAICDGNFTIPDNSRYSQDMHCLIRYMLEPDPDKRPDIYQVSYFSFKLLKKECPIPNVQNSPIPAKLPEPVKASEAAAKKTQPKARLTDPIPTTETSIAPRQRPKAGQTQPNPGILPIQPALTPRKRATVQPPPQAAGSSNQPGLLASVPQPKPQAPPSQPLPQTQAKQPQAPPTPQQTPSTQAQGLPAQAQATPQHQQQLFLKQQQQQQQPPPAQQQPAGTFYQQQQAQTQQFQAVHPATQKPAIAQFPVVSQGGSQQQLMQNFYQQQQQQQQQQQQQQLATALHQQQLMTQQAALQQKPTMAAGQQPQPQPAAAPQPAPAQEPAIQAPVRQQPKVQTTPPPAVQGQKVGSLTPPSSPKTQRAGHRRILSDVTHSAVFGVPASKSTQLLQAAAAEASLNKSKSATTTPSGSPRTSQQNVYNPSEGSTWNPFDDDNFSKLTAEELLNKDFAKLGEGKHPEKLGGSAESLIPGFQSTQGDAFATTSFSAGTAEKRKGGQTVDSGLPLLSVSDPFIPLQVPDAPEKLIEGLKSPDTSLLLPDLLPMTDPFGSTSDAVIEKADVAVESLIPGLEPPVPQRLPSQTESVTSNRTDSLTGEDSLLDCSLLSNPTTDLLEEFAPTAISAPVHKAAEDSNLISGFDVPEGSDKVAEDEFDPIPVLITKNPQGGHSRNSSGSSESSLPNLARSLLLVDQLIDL
# Assay: biochemical
pKi: −log10 of the molar value.
Property measured: pKi

COc1cccc(Nc2ccnc3ccc(OC)cc23)c1    5.04

A = Oc1cccc(Nc2ccnc3ccccc23)c1
B = COc1cccc(Nc2ccnc3ccccc23)c1
For the pair A and B , which member has the lower pKi number? The response must carry the label of the picked entry.
B
(B: 4.60, A: 5.18)

* * *

# Target under test: BMP2K (Homo sapiens, UniProt Q9NSY1)
# Sequence (Q9NSY1 whole entry): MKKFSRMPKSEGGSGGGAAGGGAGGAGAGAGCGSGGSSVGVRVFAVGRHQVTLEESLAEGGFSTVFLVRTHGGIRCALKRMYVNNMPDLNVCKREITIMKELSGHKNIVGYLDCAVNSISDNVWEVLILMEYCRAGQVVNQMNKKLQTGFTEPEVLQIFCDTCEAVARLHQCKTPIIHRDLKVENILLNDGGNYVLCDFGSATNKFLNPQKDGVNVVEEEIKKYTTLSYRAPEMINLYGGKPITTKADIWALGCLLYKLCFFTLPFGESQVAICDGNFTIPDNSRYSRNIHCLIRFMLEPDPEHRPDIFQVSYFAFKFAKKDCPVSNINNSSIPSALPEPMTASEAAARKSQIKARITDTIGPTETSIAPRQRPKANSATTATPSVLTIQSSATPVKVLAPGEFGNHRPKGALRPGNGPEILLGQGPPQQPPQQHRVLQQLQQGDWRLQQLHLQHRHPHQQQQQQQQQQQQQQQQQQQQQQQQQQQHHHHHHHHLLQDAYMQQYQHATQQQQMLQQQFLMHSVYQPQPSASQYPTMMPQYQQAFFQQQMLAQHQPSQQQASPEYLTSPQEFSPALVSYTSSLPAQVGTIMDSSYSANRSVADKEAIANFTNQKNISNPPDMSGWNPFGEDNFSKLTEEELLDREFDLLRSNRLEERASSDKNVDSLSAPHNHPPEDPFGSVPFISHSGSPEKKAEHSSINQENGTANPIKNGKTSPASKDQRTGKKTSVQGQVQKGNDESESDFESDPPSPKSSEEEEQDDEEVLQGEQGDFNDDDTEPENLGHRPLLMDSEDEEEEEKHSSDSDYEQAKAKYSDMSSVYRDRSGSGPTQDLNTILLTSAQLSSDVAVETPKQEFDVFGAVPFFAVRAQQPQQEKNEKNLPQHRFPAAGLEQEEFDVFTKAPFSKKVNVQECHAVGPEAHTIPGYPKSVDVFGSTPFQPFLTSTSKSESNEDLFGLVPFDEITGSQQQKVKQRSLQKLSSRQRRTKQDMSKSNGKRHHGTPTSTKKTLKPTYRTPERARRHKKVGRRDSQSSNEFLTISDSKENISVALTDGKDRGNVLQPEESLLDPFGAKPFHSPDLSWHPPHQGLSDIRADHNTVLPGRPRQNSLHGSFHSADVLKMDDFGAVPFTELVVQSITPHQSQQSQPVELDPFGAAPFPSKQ
# Assay: biochemical
pKi: −log10 of the molar value.
Property measured: pKi

Below, each entry is followed by its recorded pKi result.
CC(C)(C)Oc1cccc(Nc2ccnc3ccc(Br)cc23)c1 [compound 33]    < 4.00
Brc1ccc2nccc(Nc3cccc4c3OCO4)c2c1 [compound 27]    < 4.00
O=[N+]([O-])c1cccc(Nc2ccnc3ccc(Br)cc23)c1 [compound 21]    < 4.00
CC(C)(C)c1cccc(Nc2ccnc3ccc(Br)cc23)c1 [compound 34]    < 4.00
Oc1cccc(Nc2ccnc3ccc(Br)cc23)c1 [compound 14, 3-((6-bromoquinolin-4-yl)amino)phenol]    5.70

Let us examine a further case.
Short answer on BMP2K (Homo sapiens, UniProt Q9NSY1) for FS(F)(F)(F)(F)c1cccc(Nc2ccnc3ccc(Br)cc23)c1 [compound 32] , pKi: < 4.00

* * *

This listing pairs molecules with measured Ki.
# Target under test: STK16 (Homo sapiens, UniProt O75716)
# Assay: biochemical

Below, each entry is followed by its recorded Ki result.
Brc1ccc2nccc(Nc3cccc4c3OCO4)c2c1 [compound 27]    > 100 µM
COc1cccc(Nc2ccnc3ccc(Br)cc23)c1 [compound 13]    32 µM

Given item O=[N+]([O-])c1cccc(Nc2ccnc3ccc(Br)cc23)c1 [compound 21] , the value recorded as its Ki is > 100 µM

Given item CC(C)(C)c1cccc(Nc2ccnc3ccc(Br)cc23)c1 [compound 34] , the value recorded as its Ki is > 100 µM

Given item FS(F)(F)(F)(F)c1cccc(Nc2ccnc3ccc(Br)cc23)c1 [compound 32] , the value recorded as its Ki is > 100 µM
